- Experimental Protocol: soluble fraction after stress (log2 fold change); higher = more stays soluble; pooled small domains, quantitative proteomics;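 also: 20 min heating vs room temperature control held 20 min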
- Experimental Conditions: stress: 75 degC
Below is a list of entries, each paired with its recorded soluble fraction (log2) value.
Reported Endpoint: soluble fraction (log2)

>>> measured("HMSVPQENKDLLGRSIEIFYAGKTVEAKVTDTGALAPLGRALDLSPATWRAFGASSISDWGVRGVFYRFVA")
0.212
>>> measured("HMTGESIPFSKFLSEVDSGRVINVEIQGNNISGLLSDGNKFKTYSPNYPNLVEILSEKEVSIVATPLE")
0.0122
>>> measured("HMAQLPADLSKVKSSQISDQQLTQIAQQAKNSGQSEQAVLQELKQRGLPDTEIQALGARISGLMQ")
0.211
>>> measured("HMLLRVGGLVKDGSVRTDNDLGIKFIIEDNLAEVSVLYNGILPDLFREGQGVIAEGKFIDNIFIANEIVA")
-0.682
>>> measured("HMVVVLPGETIKIDLIREGKDKQALGYLEDGTMIVVDNAKHLIGKNVEIEIDNVLPKEAGRVIFASLHGA")
-0.388
>>> measured("HMVDTSDLPAIVEKVFADNPEQVNDILNGKDRVKGFLVGQIMKATRGQAPPDEVNKLIDATLEKMKAA")
0.239
>>> measured("HMSREVTVPPLSGLTLRDAARTLAERGLLMEAEGQGAVHRQDPPAGTRVPTGTPVRVFLTLPEQNS")
0.842
>>> measured("HMKVFREERLQLILEKLIHEKKVVVSDLVKYFNVSPSLIRMDLAELEKRDLILRTHGGAILPD")
-2.9
>>> measured("HMSVSTGTITGSVVNLREEPNTSSKVLDKLPKDTVVYVLSASGEWYNVSYGDKTGWVYGEYLA")
-0.737
>>> measured("HMGFAEFWLAYPKKVGKGEAERKWKTLKPDAGAVLSAVKRQSASEQWRKDGGRYIPNPATWLHQRRWE")
0.0452
>>> measured("HMRMNASERQNQIVDLLSQNGVMKIMDIADHFNVSRETIRRDLIILEDDNRIKKWFGGVISAN")
-0.706
>>> measured("HMTAQGDSSDAVQRAITEILRHEDPSHPFSDQQLVIKLRTMDISVSRRTVTKYRKLLHIPSSTHRK")
-3.12
>>> measured("HMTRHSSVDFAGYILRNKENEPIFGFGKHKGKTVVEVLQREQGYFGWLMEADFPLYTKKVLTAIRLNTLNS")
-0.261
>>> measured("HMIPLPEDVASMRERLALTPEKADELFGLEDGSFARYEHGEEKVPFVVFQLLWLLGKYPHLIGELR")
-1.2
>>> measured("HMSTEAFLGTEGEVVLPLLPDGLGKIRLHVADQDVELPARTGGEPIQIRERVVVVRFRDGIAEVEPAP")
0.0378
>>> measured("HMLADEPTGALDSKTSVQIMALLTEIAQDRLVIMVTHNPELADEYATRIVNLRDGVISDDSDPFNP")
-0.0933
>>> measured("HMSLLTIDELSQATGVSVRTLRYYVSSGVLDKPTGETRNARYGTHHLDQVRNIKKLQEEGLTLNRILEIKK")
-2.14

---

- Experimental Protocol: soluble fraction after stress (log2 fold change); higher = more stays soluble; pooled small domains, quantitative proteomics
- Experimental Conditions: stress: 75 degC
Y means recorded soluble fraction (log2) is -1 or above; N means it is below -1.

>>> group_label("HMAEIIVHEINRHLGESDEPVEFPEERREEAVAELLKNFHNDDAFRKMDDGKYEVALDGEAVREAARSLLA")
"Y"
>>> group_label("HMNPIDAHVGARVRLRRMLIGMSQEKLGELLGVTFQQIQKYEKGANRIGASRLYEVSRVLDVPVQYFFDDM")
"N"
>>> group_label("HMTSQVTVHVVGAVEKPGVVTLDAPSRVQDALEAAGGALPEAELSGVNLARELFDGEQIVVPAQGEDV")
"Y"
>>> group_label("HMELEIPGELIEAVRRLRDERQRMRLAGELAARQIQMHPERYTEASIDPVQTWDELRARILALA")
"Y"
>>> group_label("HMQEHAHLWRLMEDNRSFKADYIAFENGIVLLQNLSSGKISQYPITDFSIEDQLLILKRHELTAHINAN")
"N"
>>> group_label("HMKYNETEFKNLVAKLYNGEIEIVGKFTGLSYPILVKDKYGIMLSQKANLILNYRPTINIALNKTEYAMN")
"Y"
>>> group_label("HMEAYDTMEDRTTLAPGFAKLDKRERYILHLRFFEGLTQSQIAERVGISQMHVSRLIRRSLEKLREEIGD")
"N"
>>> group_label("HMIVNTTRAPYLLGETEQDAMRLARQAGLVPEIVRQSSAEPAGTVILQSHDFDYRMRRGSVILITVSTGPL")
"N"
>>> group_label("HMKELAADFSRRIINARTSKGWSQADLGQRMAETINVIKSAESGKPPTDAVVKKFETVLGVILM")
"N"
>>> group_label("HMRYFDDEELNNKFLEFLSMRKKIRKPVRTDRALKALLKKLHELSGGDVGLMKQIIDQSLDKEWLGLFEL")
"Y"
>>> group_label("HMLPKAERREQLMAVARSVFAEQGYHTTSMEIIAETAGVSKPLLYQHFPSKLDLYLALLDAGID")
"N"
>>> group_label("HMGGLENNLKQARNRVGLTQSELARQAGISRQAYSSLESGAANPSTEVALRLAQALSERVESLFYLPE")
"Y"
>>> group_label("HMNGVFIMHTPDGKVLRTEEGEEAVITLFNWSGQLLWSKTSLGQLPLPEGTQGVLQVQYKSGDQHTIKT")
"N"
>>> group_label("HMQISDEGELSGIVRKIIDANPQSVADYKAGKKKAIGFLVGQIMIETKGRANPASVNELLIKKLE")
"Y"
>>> group_label("HMVLLGAAIRELRIQKGITIEELAEMSGLSTGLISKIERDLGNPSISSLRKISRALGVPTAFFFA")
"N"
>>> group_label("HMVTVNAFGKSGPEPAAMTKEALAKGADEVRVIVDSPTAAASVRDFLIGAGLRVQLQDDEGQLIVVGEKK")
"Y"
>>> group_label("HMPPNPELGKKLLKLRKEFKMTQDDVANILGMSRTSFSKYENGIANPPLQVMRKLASIYNVGLEYLI")
"N"
